Molecular target: T1, fibrin
T1 chain 1: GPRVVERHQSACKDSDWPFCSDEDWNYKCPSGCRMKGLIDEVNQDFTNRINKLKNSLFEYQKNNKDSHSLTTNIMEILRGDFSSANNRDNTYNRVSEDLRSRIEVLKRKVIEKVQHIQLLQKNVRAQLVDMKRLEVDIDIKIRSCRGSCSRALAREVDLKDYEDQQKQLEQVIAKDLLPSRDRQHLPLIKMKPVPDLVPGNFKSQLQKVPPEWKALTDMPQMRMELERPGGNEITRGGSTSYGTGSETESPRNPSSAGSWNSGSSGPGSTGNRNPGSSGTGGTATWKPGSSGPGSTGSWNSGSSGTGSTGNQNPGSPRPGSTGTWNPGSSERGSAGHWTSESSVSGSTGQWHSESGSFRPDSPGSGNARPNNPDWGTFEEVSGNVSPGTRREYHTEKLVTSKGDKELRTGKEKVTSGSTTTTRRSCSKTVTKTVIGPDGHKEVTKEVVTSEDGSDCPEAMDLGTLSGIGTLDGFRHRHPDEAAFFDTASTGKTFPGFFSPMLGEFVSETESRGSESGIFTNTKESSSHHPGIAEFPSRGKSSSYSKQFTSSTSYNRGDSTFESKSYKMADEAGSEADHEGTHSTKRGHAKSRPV
T1 chain 2: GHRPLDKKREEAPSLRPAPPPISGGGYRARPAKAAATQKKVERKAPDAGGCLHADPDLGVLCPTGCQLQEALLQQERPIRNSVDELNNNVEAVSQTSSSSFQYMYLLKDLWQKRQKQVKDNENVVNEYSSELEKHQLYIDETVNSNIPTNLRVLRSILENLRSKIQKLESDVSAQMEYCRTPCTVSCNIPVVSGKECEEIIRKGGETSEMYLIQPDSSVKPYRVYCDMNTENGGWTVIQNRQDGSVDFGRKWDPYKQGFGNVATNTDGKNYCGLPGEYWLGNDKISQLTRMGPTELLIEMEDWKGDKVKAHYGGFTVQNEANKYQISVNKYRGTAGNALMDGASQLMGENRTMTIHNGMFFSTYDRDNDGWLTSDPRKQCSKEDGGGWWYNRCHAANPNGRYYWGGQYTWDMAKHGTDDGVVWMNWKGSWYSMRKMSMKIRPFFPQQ
T1 chain 3: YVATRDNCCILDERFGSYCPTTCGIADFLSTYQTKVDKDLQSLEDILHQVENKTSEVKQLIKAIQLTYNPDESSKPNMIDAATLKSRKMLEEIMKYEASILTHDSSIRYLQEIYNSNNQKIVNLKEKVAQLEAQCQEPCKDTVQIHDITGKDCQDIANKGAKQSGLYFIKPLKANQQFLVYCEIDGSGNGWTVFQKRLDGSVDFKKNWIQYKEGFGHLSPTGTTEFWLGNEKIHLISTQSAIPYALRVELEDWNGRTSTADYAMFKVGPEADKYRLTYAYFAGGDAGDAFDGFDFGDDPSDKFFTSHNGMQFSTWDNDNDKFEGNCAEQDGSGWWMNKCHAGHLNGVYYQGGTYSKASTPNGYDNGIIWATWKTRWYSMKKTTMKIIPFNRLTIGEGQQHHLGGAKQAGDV
Assay: fluorescence polarization, direct binding (n = 2)
Bridge positions count the residues as written; N and C are the ends. CF5 = 5-carboxyfluorescein
observed.property: Kd (nM)

# binder, observed.property, number
rows = [
    ("Ac-GWQPCPWESWTFCWDPGGGK(CF5)-NH2 (disulfide 5-13) [Ac-GWQPC*PWESWTFC*WDPGGGK(CF5)-NH2]", "Kd", 230),
]

(a) Ac-RRGGWQPCPAESWTFCWDPGGGK(CF5)-NH2 (disulfide 8-16) [Ac-RRGGWQPC*PAESWTFC*WDPGGGK(CF5)-NH2]
(b) Ac-GGRGWQPCPAESWTFCWDPGGGK(CF5)-NH2 (disulfide 8-16) [Ac-GGRGWQPC*PAESWTFC*WDPGGGK(CF5)-NH2]
Lab log: flag the item ( a or b ) with the smaller Kd figure. Identify your pick by its label.
a
(a: 220 nM, b: 520 nM)
